target: Cathepsin B (Bos taurus) (UniProt P07688); experiment: Inhibition of bovine spleen cathepsin B using Z-Arg-Arg-MCA as substrate at 1 mM incubated for 10 mins
assayEndpoint: inhibition

Illustrative cases are given below, each with its answer.
[[record]]
linenotation = "COc1cccc(/C=C/C(=O)N[C@H](COC(=O)c2ccccc2)C(=O)NC2CCCCC2)c1"
testresult = "44%"

[[record]]
linenotation = "O=C(/C=C/c1ccc(OC(=O)c2ccccc2)cc1)N[C@H](COC(=O)c1ccccc1)C(=O)NC1CCCCC1"
testresult = "19%"

[[record]]
linenotation = "O=C(/C=C/c1ccccc1)N[C@@H](COC(=O)c1ccccc1)C(=O)NC1CCCCC1"
testresult = "34%"


Now look at this one.
Input: inhibition lookup needed for COc1ccccc1/C=C/C(=O)N[C@@H](COC(=O)c1ccccc1)C(=O)NC1CCCCC1 , thanks.
Output: 67%
